Provenance of the data: patent US5086066A

Assay: acute toxicity, median lethal dose (LD50) intravenously
Conditions: mouse, in vivo, iv, male mice
endpoint-label: LD50 (mg/kg)
Reply with just the number (in mg/kg).

Worked cases, LD50 given:
* CCN(CC)CCNC(=O)c1cc(Br)c(NC2=NCCN2)cc1OC [Compound 6] | 103
* CCN(CC)CCNC(=O)c1cc(Cl)c(NC2=NC(C)CN2)cc1OC (centres unmarked) [Compound 1] | 19.5
* CCN1CCCC1CNC(=O)c1cc(Br)c(NC2=NC(C)CN2)cc1OC (centres unmarked) [Compound 4] | 15.5
* C=CCN1CCCC1CNC(=O)c1cc(Cl)c(NC2=NC(C)CN2)cc1OC (centres unmarked) [Compound 2] | 42

Read the next record carefully.
Given CCN(CC)CCNC(=O)c1cc(Br)c(NC2=NC(C)CN2)cc1OC (centres unmarked) [Compound 3] , state its recorded LD50. 22

====

Tested on: mice
Experiment: two compartment (dark and light) box test, anxiolytic activity
Assay type: in vivo
Conditions: 0.1 mg/kg s.c., 40 min after administration; S.E.M. <12.6%, n = 5
// label = Criterion met if Delay white → black is not less than 20 s, otherwise Criterion not met

A selection of reference data follows.
- CCN(CC)CCNC(=O)c1cc(Cl)c(NC2=NCCO2)cc1OC [Compound 7]: Criterion met
- CCN1CCCC1CNC(=O)c1cc(Br)c(NC2=NC(C)CN2)cc1OC (stereo not drawn) [Compound 4]: Criterion met
- CCN(CC)CCNC(=O)c1cc(Cl)c(NC2=NC(C)CN2)cc1OC (stereo not drawn) [Compound 1]: Criterion met
- CCN(CC)CCNC(=O)c1cc(Br)c(NC2=NC(C)CN2)cc1OC (stereo not drawn) [Compound 3]: Criterion met

Is Delay white → black for CCN(CC)CCNC(=O)c1cc(Br)c(NC2=NCCN2)cc1OC [Compound 6] at or above 20 s? Criterion not met
